system_tested: Replicase polyprotein 1ab (Severe acute respiratory syndrome coronavirus 2)
test_method_notes: Inhibition of SARS-CoV-2 3CL protease using MCA-AVLQSGFR-Lys(Dnp)-Lys-NH2 as flurogenic substrate pre-incubated with compound for 10 mins followed by substrate addition measured after 10 mins in presence of wallichins C by FRET assay
measurement_label: pIC50
Scale explanation: pIC50 corresponds to minus log10 of a concentration expressed in moles per litre.

State its pIC50: C=C1CC[C@H]2[C@@](C)(CCC[C@]2(C)C(=O)O)[C@@H]1C/C=C(\C)[C@H]1CCc2c(O)c(CC3C(=O)C(C(C)=O)=C(O)C(C)(C)C3O)c(O)c(C(=O)CCC)c2O1 (stereo partly specified)
5.25

====

test_method_notes: Selectivity index, ratio for CC50 of African green monkey Vero E6 cells to EC50 for SARS-Cov-2 infected in african monkey Vero E6 cells
Format: toxicity, Vero C1008
test_conditions: read-out: Selectivity Index
Items are presented alongside their recorded selectivity ratio.

State its selectivity ratio: C=C1CC[C@H]2[C@@](C)(CCC[C@]2(C)C(=O)O)[C@@H]1C/C=C(\C)[C@H]1CCc2c(O)c(CC3C(=O)C(C(C)=O)=C(O)C(C)(C)C3O)c(O)c(C(=O)CCC)c2O1 (some centres not stated)
> 11

State its selectivity ratio: C=C1CC[C@H]2[C@@](C)(CCC[C@]2(C)C(=O)O)[C@@H]1C/C=C(\C)[C@@H]1CCc2c(O)c(CC3C(=O)C(C(C)=O)=C(O)C(C)(C)C3O)c(O)c(C(=O)CCC)c2O1 (some centres not stated)
> 35

====

system_tested: Replicase polyprotein 1ab (Severe acute respiratory syndrome coronavirus 2)
test_method_notes: Binding affinity to SARS-CoV-2 3CL protease at 1.875 to 50 uM by SPR assay
measurement_label: pKd
Scale explanation: pKd corresponds to minus log10 of a concentration expressed in moles per litre.

compound	system_tested	measurement_label	reported_value
C=C1CC[C@H]2[C@@](C)(CCC[C@]2(C)C(=O)O)[C@@H]1C/C=C(\C)[C@H]1CCc2c(O)c(CC3C(=O)C(C(C)=O)=C(O)C(C)(C)C3O)c(O)c(C(=O)CCC)c2O1 (some centres not stated)	Replicase polyprotein 1ab (Severe acute respiratory syndrome coronavirus 2)	pKd	4.84

Report pKd under test system Replicase polyprotein 1ab (Severe acute respiratory syndrome coronavirus 2) for C=C1CC[C@H]2[C@@](C)(CCC[C@]2(C)C(=O)O)[C@@H]1C/C=C(\C)[C@@H]1CCc2c(O)c(CC3C(=O)C(C(C)=O)=C(O)C(C)(C)C3O)c(O)c(C(=O)CCC)c2O1 (some centres not stated) .
4.78
